Where do these numbers come from? They come from patent US20230310428A1.

MEASURED_TARGET: various mutants of kinase EGFR (BaF3 cell lines stably transfected with kinase) (Homo sapiens)
Construct: other: BaF3 cells stably transfected with EGFR Δ19Del; MTS, 48 h; other: BaF3 cell line stably transfected with EGFR Δ19Del
PROTOCOL_DETAILS: Growth inhibitory activity of compounds on BaF3 cell lines stably transfected with kinase (MTS, 48 h)
Type: cell-based
ASSAY_CONTEXT: BaF3 cells stably transfected with EGFR Δ19Del, read-out: IC50, growth inhibition, Δ19Del
Method: The activity of compounds against various mutants of kinase EGFR was evaluated by their effect of inhibiting growth of BaF3 cell lines stably transfected with kinase. The specific test method was given as follows: […] 3) Compound test: cells were incubated into a 96-well culture plate, the volume of cytosol was 90 µL, and then 10 µL of the compound at each gradient concentration was added. […] OD values at 490 nm were measured by a microplate reader (VARIOSKAN FLASH, Thermo). […]
READOUT_NAME: IC50

Sample answers from the record:
CCN(c1c(Nc2nc(Nc3cc(C)c(N4CCN(C)CC4)cc3OC)ncc2Cl)ccc2nccnc12)S(C)(=O)=O ... ≤ 50 nM
CN1CCN(C2CCN(c3ccc(Nc4ncc(C(F)(F)F)c(Nc5ccc6nccnc6c5N(C)S(C)(=O)=O)n4)c(OC(F)(F)F)c3)CC2)CC1 ... 50 to 500 nM
CN1CCN(c2ccc(Nc3ncc(Br)c(Nc4ccc5nccnc5c4N(C)S(C)(=O)=O)n3)cc2)CC1 ... ≤ 50 nM
COc1cc(N2CCC(N3CCN(C)CC3)CC2)ccc1Nc1ncc(Br)c(Nc2ccc3nccnc3c2N(C)S(=O)(=O)C(F)(F)F)n1 ... 500 to 2500 nM
C=Cc1cc(Nc2ncc(Cl)c(Nc3ccc4nccnc4c3N(C)S(=O)(=O)C(F)(F)F)n2)c(OC(F)(F)F)cc1N1CCC(N2CCN(C)CC2)CC1 ... 500 to 2500 nM

Read the next record carefully.
Ask | Which IC50 is listed for CCS(=O)(=O)N(C)c1c(Nc2nc(Nc3cc(CC4CC4)c(N4CCC(N5CCN(C)CC5)CC4)cc3OC)ncc2Cl)ccc2nccnc12 ?
Reply | 50 to 500 nM

====

Listing: IC50 of selected compounds
MEASURED_TARGET: various mutants of kinase EGFR (BaF3 cell lines stably transfected with kinase) (Homo sapiens, UniProt P00533, T790M/C797S, form not given)
Construct: other: BaF3 cells stably transfected with EGFR Δ19Del/T790M/C797S; MTS, 48; other: BaF3 cell line stably transfected with EGFR Δ19Del/T790M/C7
Sequence (P00533 with tags, fused parts or gaps DEL746-750/T790M/C797S, form open): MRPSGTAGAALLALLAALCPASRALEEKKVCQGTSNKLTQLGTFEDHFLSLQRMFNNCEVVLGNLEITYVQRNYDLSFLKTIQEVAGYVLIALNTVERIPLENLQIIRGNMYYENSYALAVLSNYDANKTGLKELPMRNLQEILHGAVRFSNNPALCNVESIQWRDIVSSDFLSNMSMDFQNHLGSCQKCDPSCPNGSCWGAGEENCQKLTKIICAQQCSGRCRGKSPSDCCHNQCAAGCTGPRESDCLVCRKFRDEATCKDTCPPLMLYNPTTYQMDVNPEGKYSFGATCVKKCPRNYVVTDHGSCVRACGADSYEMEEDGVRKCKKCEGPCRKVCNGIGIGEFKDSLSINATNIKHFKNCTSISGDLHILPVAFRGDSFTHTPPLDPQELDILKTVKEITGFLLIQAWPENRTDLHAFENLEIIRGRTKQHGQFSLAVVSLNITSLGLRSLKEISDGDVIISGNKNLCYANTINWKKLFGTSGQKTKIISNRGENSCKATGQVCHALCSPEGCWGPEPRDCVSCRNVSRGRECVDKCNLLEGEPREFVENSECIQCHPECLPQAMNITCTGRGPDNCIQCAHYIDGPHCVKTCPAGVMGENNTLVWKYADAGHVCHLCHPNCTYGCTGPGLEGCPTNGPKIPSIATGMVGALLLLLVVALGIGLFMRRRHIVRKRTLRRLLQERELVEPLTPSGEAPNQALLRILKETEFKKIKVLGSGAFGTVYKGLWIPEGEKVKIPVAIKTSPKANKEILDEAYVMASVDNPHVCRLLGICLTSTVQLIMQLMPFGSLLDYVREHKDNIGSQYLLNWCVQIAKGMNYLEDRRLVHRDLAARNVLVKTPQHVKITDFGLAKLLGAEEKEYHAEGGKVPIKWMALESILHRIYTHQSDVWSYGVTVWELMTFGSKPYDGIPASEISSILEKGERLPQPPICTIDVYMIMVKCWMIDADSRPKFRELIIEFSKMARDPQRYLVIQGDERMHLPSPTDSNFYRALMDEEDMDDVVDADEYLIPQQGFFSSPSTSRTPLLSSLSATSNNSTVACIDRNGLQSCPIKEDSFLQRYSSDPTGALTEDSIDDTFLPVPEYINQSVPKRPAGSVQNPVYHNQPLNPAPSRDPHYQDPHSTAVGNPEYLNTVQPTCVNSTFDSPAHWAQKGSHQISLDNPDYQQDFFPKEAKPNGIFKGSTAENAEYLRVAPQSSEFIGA
PROTOCOL_DETAILS: Growth inhibitory activity of compounds on BaF3 cell lines stably transfected with kinase (MTS, 48 h)
Format: cell-based
ASSAY_CONTEXT: BaF3 cell line stably transfected with EGFR Δ19Del/T790M/C797S, read-out: Δ19Del/T790M/ C797S growth inhibitory activity IC50

# count of solved cases: 5
COc1ccc(N2CCC(O)CC2)cc1Nc1ncc(Br)c(Nc2ccc3nccnc3c2N(C)S(=O)(=O)C(C)C)n1 ... ≤ 50 nM
COc1ccc(N2CCC(O)CC2)cc1Nc1ncc(Br)c(Nc2ccc3nccnc3c2N(C2CC2)S(C)(=O)=O)n1 ... ≤ 50 nM
CCc1cc(Nc2ncc(C#N)c(Nc3ccc4nccnc4c3N(C)S(C)(=O)=O)n2)ccc1N1CCC(N2CCN(C)CC2)CC1 ... 50 to 500 nM
CCc1cc(Nc2ncc(CC)c(Nc3ccc4nccnc4c3N(C)S(C)(=O)=O)n2)ccc1N1CCC(N2CCN(C)CC2)CC1 ... ≤ 50 nM
CCc1cc(Nc2ncc(Br)c(Nc3ccc4nccnc4c3NS(C)(=O)=O)n2)c(OC)cc1N1CCC(N(C)C)CC1 ... ≤ 50 nM

Ask | Which IC50 value is on record for COc1cc(N2CCC(N3CCN(C)CC3)CC2)c(C)cc1Nc1nccc(Nc2ccc3nccnc3c2N(C)S(C)(=O)=O)n1 ?
Reply | 50 to 500 nM

Ask | Value lookup for IC50; key = COc1cc(N2CCC(N3CCN(C)CC3)CC2)c(C)cc1Nc1nc(Nc2ccc3nccnc3c2N(C)S(C)(=O)=O)c2cc[nH]c2n1
Reply | ≤ 50 nM

Ask | Item CN1CCN(C2CCN(c3ccc(Nc4nc(Nc5ccc6nccnc6c5N(C)S(C)(=O)=O)c5[nH]ccc5n4)c(OC(F)(F)F)c3)CC2)CC1 has what recorded IC50?
Reply | 50 to 500 nM

Ask | # input compound: CCc1cc(Nc2nc(Nc3ccc4nccnc4c3N(C)S(C)(=O)=O)c3[nH]ccc3n2)c(OC)cc1N1CCC(N(C)C)CC1 ; wanted: its IC50
Reply | 50 to 500 nM

Ask | Could you share which IC50 value was measured for CCN(c1c(Nc2nc(Nc3cc(N4CCC(O)CC4)ccc3OC)ncc2Br)ccc2nccnc12)S(C)(=O)=O ?
Reply | ≤ 50 nM

Ask | Record request: IC50 value, item COc1cc(N2CCC(N3CCN(C)CC3)CC2)c(CC2CC2)cc1Nc1ncc(Br)c(Nc2ccc3nccnc3c2NS(C)(=O)=O)n1
Reply | ≤ 50 nM

====

MEASURED_TARGET: various mutants of kinase EGFR (BaF3 cell lines stably transfected with kinase) (Homo sapiens, UniProt P00533, C797S/L858R/T790M)
Construct: expressed in transfected cells; host or cells: BaF3
Sequence (P00533 25-1210 T790M/C797S/L858R): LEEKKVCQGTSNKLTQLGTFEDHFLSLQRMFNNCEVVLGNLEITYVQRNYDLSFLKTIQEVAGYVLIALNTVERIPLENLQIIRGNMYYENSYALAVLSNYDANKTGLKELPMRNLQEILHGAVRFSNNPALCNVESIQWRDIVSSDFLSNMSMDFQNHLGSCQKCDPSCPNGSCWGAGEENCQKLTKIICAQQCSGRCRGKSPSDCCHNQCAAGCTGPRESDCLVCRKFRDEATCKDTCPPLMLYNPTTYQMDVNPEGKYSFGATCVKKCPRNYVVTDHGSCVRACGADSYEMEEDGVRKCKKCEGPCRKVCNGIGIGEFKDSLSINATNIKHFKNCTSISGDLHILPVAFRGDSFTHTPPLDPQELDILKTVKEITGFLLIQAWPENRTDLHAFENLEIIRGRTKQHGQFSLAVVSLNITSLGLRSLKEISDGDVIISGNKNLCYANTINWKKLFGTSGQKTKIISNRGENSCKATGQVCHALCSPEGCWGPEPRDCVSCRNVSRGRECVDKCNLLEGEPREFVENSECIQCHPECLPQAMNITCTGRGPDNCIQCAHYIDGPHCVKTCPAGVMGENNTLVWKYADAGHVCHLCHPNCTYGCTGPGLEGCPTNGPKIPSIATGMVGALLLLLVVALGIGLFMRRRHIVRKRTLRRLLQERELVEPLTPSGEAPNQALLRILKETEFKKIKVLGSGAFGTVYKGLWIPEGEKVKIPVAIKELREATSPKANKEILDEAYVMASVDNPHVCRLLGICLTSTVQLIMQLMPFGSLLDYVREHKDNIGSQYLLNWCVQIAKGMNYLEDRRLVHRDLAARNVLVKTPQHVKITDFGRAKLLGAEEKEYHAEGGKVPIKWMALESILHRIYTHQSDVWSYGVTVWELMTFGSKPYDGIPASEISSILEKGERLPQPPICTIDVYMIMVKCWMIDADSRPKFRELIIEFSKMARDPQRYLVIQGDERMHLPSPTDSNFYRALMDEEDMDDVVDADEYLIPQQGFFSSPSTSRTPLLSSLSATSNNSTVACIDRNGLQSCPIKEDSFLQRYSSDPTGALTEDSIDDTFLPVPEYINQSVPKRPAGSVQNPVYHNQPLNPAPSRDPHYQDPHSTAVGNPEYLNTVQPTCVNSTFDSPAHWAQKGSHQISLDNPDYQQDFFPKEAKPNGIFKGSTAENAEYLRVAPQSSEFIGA
PROTOCOL_DETAILS: Growth inhibitory activity of compounds on BaF3 cell lines stably transfected with kinase (MTS, 48 h)
Assay type: cell-based
ASSAY_CONTEXT: BaF3 cells stably transfected with EGFR L858R/T790M/C797S, read-out: IC50, growth inhibition, L858R/T790M/C797S
pIC50: −log10 of the molar value.
READOUT_NAME: pIC50

COc1cc(N2CCN(C)CC2)c(C)cc1Nc1ncc(Cl)c(Nc2ccc3nccnc3c2N(C)S(=O)(=O)C(F)(F)F)n1 ... 6.30 to 7.30
COc1cc(N2CCC(N3CCN(C)CC3)CC2)ccc1Nc1ncc(Cl)c(Nc2ccc3nccnc3c2N(C)S(=O)(=O)C2CC2)n1 ... 6.30 to 7.30
COc1cc(N2CCC(N3CCN(C)CC3)CC2)c(CC2CC2)cc1Nc1ncc([N+](=O)[O-])c(Nc2ccc3nccnc3c2N(C)S(C)(=O)=O)n1 ... 6.30 to 7.30
CCc1cc(Nc2ncc(Br)c(Nc3ccc4nccnc4c3N(CC)S(C)(=O)=O)n2)c(OC)cc1N1CCC(N(C)C)CC1 ... ≥ 7.30
COc1cc(N2CCN(C)CC2)c(C)cc1Nc1ncc(F)c(Nc2ccc3nccnc3c2N(C)S(C)(=O)=O)n1 ... 6.30 to 7.30

Ask | What pIC50 value was documented for this compound, CCS(=O)(=O)N(C)c1c(Nc2nc(Nc3cc(C)c(N4CCC(N5CCN(C)CC5)CC4)cc3OC)ncc2Br)ccc2nccnc12 ?
Reply | ≥ 7.30

Ask | What pIC50 value was documented for this compound, CCc1cc(Nc2ncc(Cl)c(Nc3ccc4nccnc4c3N(CC)S(C)(=O)=O)n2)c(OC)cc1N1CCN(C)CC1 ?
Reply | ≥ 7.30

Ask | Reported pIC50, compound CCc1cc(Nc2ncc(Br)c(Nc3ccc4nccnc4c3N(C)S(=O)(=O)C(F)(F)F)n2)c(OC)cc1N1CCC(N(C)C)C1 (stereo not shown) : ____
Reply | 6.30 to 7.30

Ask | Returns the measured pIC50 for the input compound. Input: C=Cc1cc(Nc2ncc(C(F)(F)F)c(Nc3ccc4nccnc4c3N(C)S(C)(=O)=O)n2)c(OC(F)(F)F)cc1N1CCC(N2CCN(C)CC2)CC1
Reply | 6.30 to 7.30

Ask | Any idea what pIC50 was measured for CCc1cc(Nc2ncc(Cl)c(Nc3ccc4nccnc4c3N(C3CC3)S(C)(=O)=O)n2)c(OC)cc1N1CCC(N(C)C)CC1 ?
Reply | ≥ 7.30

Ask | Any idea what its pIC50 is? The compound is CN1CCN(Cc2cc(Nc3ncc(Br)c(Nc4ccc5nccnc5c4N(C)S(C)(=O)=O)n3)cc(C(F)(F)F)c2)CC1
Reply | 6.30 to 7.30

Ask | Suppose we examine the compound CCN(c1c(Nc2nc(Nc3cc(C)c(N4CCN(C)CC4)cc3OC)ncc2Cl)ccc2nccnc12)S(C)(=O)=O ; what pIC50 value has been reported?
Reply | ≥ 7.30

Ask | I am curious: what pIC50 value has been reported for CCc1cc(Nc2ncc(Cl)c(Nc3ccc4nccnc4c3N(CC)S(C)(=O)=O)n2)c(OC)cc1N1CCC(N2CCN(C)CC2)CC1 ?
Reply | ≥ 7.30

====

MEASURED_TARGET: various mutants of kinase EGFR (BaF3 cell lines stably transfected with kinase) (Homo sapiens, UniProt P00533)
Construct: other: BaF3 cells stably transfected with EGFR Δ19Del; MTS, 48 h; other: BaF3 cell line stably transfected with EGFR Δ19Del
Sequence (P00533 with tags, fused parts or gaps DEL746-750): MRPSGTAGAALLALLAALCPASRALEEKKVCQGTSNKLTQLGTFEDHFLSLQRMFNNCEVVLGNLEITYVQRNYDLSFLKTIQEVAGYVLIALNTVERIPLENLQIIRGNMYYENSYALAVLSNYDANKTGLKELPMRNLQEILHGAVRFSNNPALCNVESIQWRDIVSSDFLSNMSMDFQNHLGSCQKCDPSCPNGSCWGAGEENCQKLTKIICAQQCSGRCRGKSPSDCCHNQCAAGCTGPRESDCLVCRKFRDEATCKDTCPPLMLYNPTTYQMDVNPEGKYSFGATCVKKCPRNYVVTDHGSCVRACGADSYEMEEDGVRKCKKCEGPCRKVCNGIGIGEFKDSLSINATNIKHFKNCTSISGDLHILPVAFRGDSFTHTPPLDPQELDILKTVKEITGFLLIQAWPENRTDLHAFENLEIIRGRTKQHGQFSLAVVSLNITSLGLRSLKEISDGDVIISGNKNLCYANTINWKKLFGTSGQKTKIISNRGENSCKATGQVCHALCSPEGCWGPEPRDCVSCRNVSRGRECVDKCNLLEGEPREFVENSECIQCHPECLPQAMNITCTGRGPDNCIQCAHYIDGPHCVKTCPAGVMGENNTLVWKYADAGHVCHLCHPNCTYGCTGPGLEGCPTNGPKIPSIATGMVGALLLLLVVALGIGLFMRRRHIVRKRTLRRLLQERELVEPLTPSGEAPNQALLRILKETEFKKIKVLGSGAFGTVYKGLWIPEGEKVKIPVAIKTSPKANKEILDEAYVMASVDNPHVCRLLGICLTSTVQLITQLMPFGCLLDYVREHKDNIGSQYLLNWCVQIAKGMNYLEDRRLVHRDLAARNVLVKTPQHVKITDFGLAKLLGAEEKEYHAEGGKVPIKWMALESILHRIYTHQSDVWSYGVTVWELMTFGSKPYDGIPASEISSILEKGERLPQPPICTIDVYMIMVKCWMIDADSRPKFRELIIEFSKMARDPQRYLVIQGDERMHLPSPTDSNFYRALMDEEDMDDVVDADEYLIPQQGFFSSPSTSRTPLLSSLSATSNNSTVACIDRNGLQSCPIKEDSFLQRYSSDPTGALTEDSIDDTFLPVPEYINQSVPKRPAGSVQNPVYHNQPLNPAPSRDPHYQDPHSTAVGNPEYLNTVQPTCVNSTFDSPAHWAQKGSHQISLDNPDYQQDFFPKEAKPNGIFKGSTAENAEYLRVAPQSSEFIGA
PROTOCOL_DETAILS: Growth inhibitory activity of compounds on BaF3 cell lines stably transfected with kinase (MTS, 48 h)
Assay type: cell-based
ASSAY_CONTEXT: BaF3 cells stably transfected with EGFR Δ19Del, read-out: IC50, growth inhibition, Δ19Del
pIC50: −log10 of the molar value.
Each entry below carries its recorded pIC50.

These recorded examples may help you get a feel for the data.
CCc1cc(Nc2ncc(Br)c(Nc3ccc4nccnc4c3N(C)S(C)(=O)=O)n2)c(OC)nc1N1CCC(N2CCN(C)CC2)CC1 ... 6.30 to 7.30
C=Cc1cc(Nc2ncc(Br)c(Nc3ccc4nccnc4c3N(C)S(=O)(=O)C3CC3)n2)c(OC(F)(F)F)cc1N1CCC(N2CCN(C)CC2)CC1 ... 6.30 to 7.30
CCc1cc(Nc2ncc(C)c(Nc3ccc4nccnc4c3N(C)S(C)(=O)=O)n2)c(OC)cc1N1CCC(N(C)C)CC1 ... ≥ 7.30
COc1cc(N2CCC(N(C)C)C2)c(C)cc1Nc1ncc(F)c(Nc2ccc3nccnc3c2N(C)S(C)(=O)=O)n1 (stereo not drawn) ... ≥ 7.30

Ask | Can you share its pIC50? I mean this compound: COc1cc(N2CCC(N3CCN(C)CC3)CC2)c(CC2CC2)cc1Nc1ncc(Cl)c(Nc2ccc3nccnc3c2N(C)S(=O)(=O)C2CC2)n1
Reply | 6.30 to 7.30

Ask | Reported pIC50, compound COc1cc(N2CCC(N(C)C)CC2)c(C)cc1Nc1ncc(C(F)(F)F)c(Nc2ccc3nccnc3c2N(C)S(C)(=O)=O)n1 : ____
Reply | ≥ 7.30
